# Test system: Colon cancer organoid
# ASSAY_DETAILS: Identification of compartment-specific drug sensitivities in O20 CRC organoid-stroma F20 CAF co-cultures. Organoid is transduced with Lucferase2-P2A-EGFP lentivirus, fibroblast with Renilla-dsRed lentivirus. Dual-Glo Luciferase assay is used to report viability data.
# Format: functional, Homo sapiens
# Design: dose or concentration left out as unconfirmed
# STATED_CONDITIONS: Transduced with Renilla-dsRed lentivirus

MOL_SMILES | MEASUREMENT_TARGET | UOM | Cell Viability
O=C(N1CCS(=O)(=O)CC1)N1C[C@H](c2ccc(OC(F)(F)F)cc2)C[C@H](c2nc(C3CC3)no2)C1 | Colon cancer organoid | % | 114.29
CCC(=O)N[C@@H]1CC[C@H](C(=O)N(C)c2ccc(-c3nc4ccccc4o3)cc2)C1 | Colon cancer organoid | % | 121.154
COc1cc(C(=O)O)ncc1C#Cc1ccccc1NS(=O)(=O)c1cccc2c(N(C)C)ccnc12 | Colon cancer organoid | % | 109.372
CC[C@H](CO)Nc1nc(NCc2ccccc2)c2ncn(C(C)C)c2n1 | Colon cancer organoid | % | 75.3934

====

The reader will find reported Cell Viability values listed item by item below.
# Test system: Colon cancer organoid
# ASSAY_DETAILS: Identification of compartment-specific drug sensitivities in O20 CRC organoid-stroma F20 CAF co-cultures. Organoid is transduced with Lucferase2-P2A-EGFP lentivirus, fibroblast with Renilla-dsRed lentivirus. Dual-Glo Luciferase assay is used to report viability data.
# Type: functional, Homo sapiens
# Set-up: dose or concentration left out as unconfirmed
# STATED_CONDITIONS: Transduced with Renilla-dsRed lentivirus
TEST_READOUT: Cell Viability (%)

MOL_SMILES | TEST_READOUT | EXPERIMENTAL_VALUE
CC(C)(C#Cc1ccc(NC(=O)COc2ccccc2C(=O)c2ccccc2)c(Cl)c1)C(=O)O | Cell Viability | 100.148
CN1C[C@H](Nc2cnn(C)c(=O)c2Br)C[C@H](c2ccccc2)C1 | Cell Viability | 106.068
Cn1c(=O)[nH]c2cc(N3C(=O)c4cccc5c(CCCO)ccc(c45)C3=O)ccc21 | Cell Viability | 89.8045
CC(=O)c1cc(-c2ccccc2OCC2CC2)c2ncccn12 | Cell Viability | 121.201
Cn1cc(C2=C(c3cn(C4CCN(Cc5ccccn5)CC4)c4ccccc34)C(=O)NC2=O)c2ccccc21 | Cell Viability | 78.6109

====

# Tested on: Colon cancer organoid
# ASSAY_DETAILS: Identification of compartment-specific drug sensitivities in O20 CRC organoid-stroma F20 CAF co-cultures. Organoid is transduced with Lucferase2-P2A-EGFP lentivirus, fibroblast with Renilla-dsRed lentivirus. Dual-Glo Luciferase assay is used to report viability data.
# Assay type: functional, Homo sapiens
# Parameters: dose or concentration left out as unconfirmed
# STATED_CONDITIONS: Transduced with Renilla-dsRed lentivirus
TEST_READOUT: Cell Viability (%)

COMPOUND | TEST_READOUT | UOM | EXPERIMENTAL_VALUE
CN1CCN(c2cnc3c(C4CCN(C(=O)c5ccc(OC(F)(F)F)cc5N)CC4)ncnc3c2)CC1 | Cell Viability | % | 141.163
COc1ccc(Oc2cc(NCCC(F)(F)F)c3ncc(-c4ccc(C(=O)NC5CC5)c(C)c4)n3n2)c(F)c1F | Cell Viability | % | 184.891
CC(=O)c1c(NS(C)(=O)=O)c2cc(-c3ccc(Cl)cc3)c(-c3ccc(Cl)cc3Cl)nc2n(C)c1=O | Cell Viability | % | 122.581
CN(C)C(=O)Cn1cc(-c2ccc(-c3cncc4ccccc34)cc2)cn1 | Cell Viability | % | 25.8647
C[C@@H](c1cccc(C#N)c1)n1cc(Cl)cc(C(N)=O)c1=N.Cl | Cell Viability | % | 72.4154
Cc1c(NC(=O)c2ccc(C(C)(C)C)cc2)cccc1-c1cn(C)c(=O)c(Nc2ccc(C(=O)N3CCOCC3)cc2)n1 | Cell Viability | % | 88.3582
Cn1cc(-c2[nH]c3cc(NC(=O)[C@H](N)C4CCCCC4)cc4c3c2C=NNC4=O)cn1 | Cell Viability | % | 172.741
COc1cc2ncn(-c3cc(OCc4ccccc4C(F)(F)F)c(C(N)=O)s3)c2cc1OC [GW843682X] | Cell Viability | % | 152.214

====

We begin with a simple list: items and their reported Cell Viability.
# Tested on: Colon cancer organoid
# ASSAY_DETAILS: Identification of compartment-specific drug sensitivities in O06 CRC organoid-stroma F06 CAF co-cultures. Organoid is transduced with Lucferase2-P2A-EGFP lentivirus, fibroblast with Renilla-dsRed lentivirus. Dual-Glo Luciferase assay is used to report viability data.
# Format: functional, Homo sapiens
# Parameters: dose or concentration left out as unconfirmed
# STATED_CONDITIONS: Transduced with Renilla-dsRed lentivirus

COMPOUND | UOM | Cell Viability
C[C@H](NC(=O)Nc1cc2[nH]ncc2c(CO)n1)c1ccccn1 | % | 86.1568
Cc1c(Oc2ccc(F)cc2)c(OC(C)C)nn1-c1ccc(C2CC2)cn1 | % | 90.9232
C[C@H](c1ccnc(Nc2nc3ccc(-c4cc(N(C)C)ncn4)cc3[nH]2)c1)N1CCN(C(=O)CC(F)(F)F)CC1 | % | 142.411
COc1cccc2c1c(O)c(C(=O)N(C)c1ccc(C(F)(F)F)cc1)c(=O)n2C | % | 130.265
Cc1cc(C)cc(C(=O)NOCCCCCC(=O)NO)c1 | % | 454.718
O=C(NCCN1CCOCC1)c1ccc2c(c1)C(=O)c1ccc(Nc3ccc(F)c(NC(=O)c4ccccc4)c3)cc1CC2 | % | 67.282
CCC(=N\O)/C(C)=C/c1ccc(F)c(C)c1 | % | 100.08
Cn1cc(CNCC2CCN(c3ncc(C(=O)NO)cn3)CC2)c2ccccc21 | % | 190.694
CCN1CCN(c2ccc(Nc3cc(N(C)C(=O)Nc4c(Cl)c(OC)cc(OC)c4Cl)ncn3)cc2)CC1 | % | 125.024
CCC(=O)N1CCOc2c(cc(-c3ccc(OC)c(OC)c3)cc2OCC2CCCN(C)C2)C1 (stereo not drawn) | % | 135.091
COc1cc(N(C)c2ccnc3ccc(C(F)(F)F)cc23)cc(OC)c1OC | % | 117.147
C[C@@H]1CCN(C(=O)CC#N)C[C@@H]1N(C)c1ncnc2[nH]ccc12.O=C(O)CC(O)(CC(=O)O)C(=O)O [TOFACITINIB CITRATE] | % | 91.9737
O=C(CCCCCCNC(=O)c1cnc(N(c2ccccc2)c2ccccc2)nc1)NO | % | 143.43
C[C@H]1CCCN1Cc1nc2cc(NC(=O)c3ccc4cnccc4c3)ccc2[nH]1 | % | 131.721
CCC(=O)Nc1cccc(Oc2nc(Nc3ccc(N4CCN(C)CC4)cc3OC)ncc2Cl)c1 | % | 94.5997
CN1C(=O)c2sccc2N(C)c2nc(Nc3ccc(S(N)(=O)=O)cc3)ncc21 | % | 57.2364
Cc1cc2c(-c3ccco3)cnc(N[C@H]3CCN(C)C[C@@H]3C(=O)NC3CCCCC3)c2[nH]c1=O | % | 153.556
CC(C)Oc1ccc(-c2c[nH]cc2CN(C)CCN)cc1 | % | 178.793

====

# Tested on: Colon cancer organoid
# ASSAY_DETAILS: Identification of compartment-specific drug sensitivities in O20 CRC organoid-stroma F20 CAF co-cultures. Organoid is transduced with Lucferase2-P2A-EGFP lentivirus, fibroblast with Renilla-dsRed lentivirus. Dual-Glo Luciferase assay is used to report viability data.
# Assay type: functional, Homo sapiens
# Parameters: dose or concentration left out as unconfirmed
# STATED_CONDITIONS: Transduced with Renilla-dsRed lentivirus
TEST_READOUT: Cell Viability (%)

COMPOUND | MEASUREMENT_TARGET | EXPERIMENTAL_VALUE
CNC(=O)c1ccc(Nc2ncc(C(F)(F)F)c(NCc3nccnc3N(C)S(C)(=O)=O)n2)cc1 [DEFACTINIB] | Colon cancer organoid | 79.7534
CNC(=O)c1cc(C(=O)NC2CC2)cn(Cc2ccccc2)c1=O [GSK620] | Colon cancer organoid | 100.747
Cc1ccccc1Oc1cc(-n2c(=O)cc(C(F)(F)F)[nH]c2=O)c2ccccc2c1Cl [BAY-069] | Colon cancer organoid | 119.466
CCC(=O)N1CCN(c2ccc(-n3c(=O)ccc4cnc5ccc(-c6cnc7ccccc7c6)cc5c43)cc2C(F)(F)F)CC1 [TORIN1] | Colon cancer organoid | 44.8651

====

# System: Colon cancer organoid
# ASSAY_DETAILS: Identification of compartment-specific drug sensitivities in O20 CRC organoid-stroma F20 CAF co-cultures. Organoid is transduced with Lucferase2-P2A-EGFP lentivirus, fibroblast with Renilla-dsRed lentivirus. Dual-Glo Luciferase assay is used to report viability data.
# Format: functional, Homo sapiens
# Design: dose or concentration left out as unconfirmed
# STATED_CONDITIONS: Transduced with Lucferase2-P2A-EGFP lentivirus
TEST_READOUT: Cell Viability (%)

MOL_SMILES | MEASUREMENT_TARGET | TEST_READOUT | EXPERIMENTAL_VALUE
COCCN1CCC(c2cc(CN(C)C(=O)c3cccc(Oc4ccccc4)c3)ccn2)CC1 | Colon cancer organoid | Cell Viability | 94.6976
CC1(C)C(N)=Nc2cc(OCCCCN3Cc4ccc(OCc5cn(CC(=O)N6CCC(CCN7CCCC7)CC6)nn5)cc4C3)c(OCC3CC3)cc21 | Colon cancer organoid | Cell Viability | 70.7317
CCc1ccccc1C(=O)Nc1n[nH]c2c(C)c(F)c(C3C(C#N)=C(C)N(C)C(C)=C3C#N)cc12 | Colon cancer organoid | Cell Viability | 74.4041
CN(C)CCCOc1ccc(-c2cc(NCCCn3cccn3)nc(S(C)(=O)=O)n2)cc1 | Colon cancer organoid | Cell Viability | 144.942
CCc1cc(Nc2nccc(-c3c(-c4ccc(OC)c(C(=O)Nc5c(F)cccc5F)c4)nc4ccccn34)n2)c(OC)cc1N1CCC(N2CCN(S(C)(=O)=O)CC2)CC1 | Colon cancer organoid | Cell Viability | 117.027
C[C@@]1(Cc2ccc(C#N)cc2)C(=O)N(c2cc(Cl)cc(Cl)c2)c2ncc(C(=O)NC3(c4nc(C5CCC5)no4)CC3)n21 | Colon cancer organoid | Cell Viability | 72.3076
Cc1c(Oc2ccc(F)cc2)c(OC(C)C)nn1-c1ccc(C2CC2)cn1 | Colon cancer organoid | Cell Viability | 91.0165
O=C(NCC(=O)N1CCCC1)Nc1ccc2cnccc2c1 | Colon cancer organoid | Cell Viability | 121.558

Source of measurements: ChEMBL document CHEMBL5608141
